Tested on: HS 578T breast
protocol.summary: NCI-60 one-dose screen, 48 h (100 = growth as untreated, 0 = no growth, -100 = all killed)
assay.setup: 10 µM unless noted
This is part of a sample that, as a whole, favours compounds with a hit. Of some 83,000 tested, about 20% had one in any assay. Active and inactive are the calls of the source. Rule for the calls: active = growth percent below 10; inactive = the rest.
observation.type: growth

molecule=CN(C)C(=S)N(C)C measured_value="157% (inactive)"
molecule=Clc1ccc2sc(-c3ccccc3)nc2c1 measured_value="68.7% (inactive)"
molecule="CC(NC(=O)CCl)c1ccccc1 (stereo unspecified)" measured_value="92.5% (inactive)"
molecule=CN(C=O)c1ccccc1 measured_value="100% (inactive)"
molecule=CC(C)(C)OC(=O)CC1(O)CCCCC1 measured_value="102% (inactive)"
molecule=CCNCc1ccccc1 measured_value="102% (inactive)"
molecule=S=c1nn[nH]n1C1CCCCC1 measured_value="95.7% (inactive)"
molecule=Oc1ccc(O)c(-c2ccccc2)c1 measured_value="76.5% (inactive)"
molecule=NNC(=O)Nc1ccccc1 measured_value="105% (inactive)"
molecule=Nc1c(Cl)cc2c(c1Br)C(=O)c1ccccc1C2=O measured_value="98% (inactive)"
molecule=COc1cc([C@@H]2c3cc4c(cc3[C@H](O)[C@H]3COC(=O)[C@@H]23)OCO4)cc(OC)c1OC measured_value="-47.7% (active)"
molecule="C/C(=C\\c1ccccc1)C(O)C(=O)c1nc2ccc([N+](=O)[O-])cc2[nH]c1=O (stereo unspecified)" measured_value="94.7% (inactive)"
molecule=CC(=O)Nc1cscc1NC(C)=O measured_value="103% (inactive)"
molecule=CCn1c2ccc(N(C)C)cc2c2cc(N(C)C)ccc21 measured_value="107% (inactive)"
molecule=Cc1ccc([N+](=O)[O-])cc1Br measured_value="94.8% (inactive)"
molecule=O=C1C=CC(=O)N1Cc1ccco1 measured_value="117% (inactive)"
molecule="O=[N+]([O-])c1ccc(NC(c2ccccc2)c2ccc3cccnc3c2O)cc1 (stereo unspecified)" measured_value="35.6% (inactive)"
molecule=CCOC(=O)CN1CCC(C(=O)OCC)CC1 measured_value="106% (inactive)"
molecule=COc1cc(NCCCCCNC(C)C)c2ncccc2c1 measured_value="83.5% (inactive)"
molecule=COc1ccc(COC=O)cc1 measured_value="104% (inactive)"
molecule=O=COCCCc1ccccc1 measured_value="96.6% (inactive)"
molecule=CS(=O)(=O)c1nsc(N)n1 measured_value="103% (inactive)"
molecule="O=C(O)C(Cc1ccc(OS(=O)(=O)Cc2ccccc2)cc1)NS(=O)(=O)Cc1ccccc1 (stereo unspecified)" measured_value="106% (inactive)"
molecule=O=C(O)c1ccc2c3ccc(C(=O)O)c4c(C(=O)O)ccc(c5ccc(C(=O)O)c1c25)c43 measured_value="107% (inactive)"
molecule=O=C1c2cccnc2-c2ncccc21 measured_value="89.5% [100 µM] (inactive)"
molecule=N#Cc1c[nH]n2ccnc12 measured_value="117% (inactive)"
molecule=C=CCN1C(=O)c2ccccc2C1=O measured_value="99.8% (inactive)"
molecule=Cc1cc(-c2ccc(N=Nc3c(C)nn(-c4ccc(S(=O)(=O)O)cc4)c3O)c(C)c2)ccc1N=Nc1ccc(O)c(C(=O)O)c1 measured_value="91.8% (inactive)"
molecule=COC(=O)c1nc(=S)[nH]c(C(=O)OC)c1C(=O)c1ccccc1 measured_value="99% (inactive)"
molecule=CSc1nc(N)c(N)c(N)n1 measured_value="111% (inactive)"
molecule=OCc1ccccc1F measured_value="109% (inactive)"
molecule=CCCCCc1cc[n+](CC(=O)c2ccccc2)cc1 measured_value="106% (inactive)"
molecule=CC(=O)Nc1ccc2oc(=O)ccc2c1 measured_value="109% (inactive)"
molecule=CCc1ccc(OC(=O)CCl)cc1 measured_value="110% (inactive)"
molecule="CC(C)(C)C1CCC(=NO)CC1 (stereo unspecified)" measured_value="102% (inactive)"
molecule=CCOCCC(=O)O measured_value="98.7% (inactive)"
molecule=Nc1ccc2ccc(NS(=O)(=O)N3CCCCC3)cc2c1 measured_value="20.9% (inactive)"
molecule=OCCCc1ccccc1 measured_value="106% (inactive)"
molecule=C/C(CC(C)C)=N/NC(N)=S measured_value="96.8% (inactive)"
molecule=COc1cc(Cl)ccc1C measured_value="115% (inactive)"
molecule=O=[N+]([O-])c1ccc(N2CCN=N2)cc1 measured_value="101% (inactive)"
molecule=COc1ccc(/C=N/NC(N)=S)cc1 measured_value="101% (inactive)"
molecule="OC1CCCN(Cc2ccccc2)C1 (stereo unspecified)" measured_value="118% (inactive)"
molecule=Cn1c(-c2ccccc2)cc(=O)cc1-c1ccccc1 measured_value="105% (inactive)"
molecule=ON=C(C1CCCCC1)C1CCCCC1 measured_value="101% (inactive)"
molecule=O=S(=O)(O)c1ccc2cc(O)ccc2c1 measured_value="104% (inactive)"
molecule="C#CCOC(=O)C(N)CS (stereo unspecified)" measured_value="137% (inactive)"
molecule="O=P(O)(O)OC1C(OP(=O)(O)O)C(OP(=O)(O)O)C(OP(=O)(O)O)C(OP(=O)(O)O)C1OP(=O)(O)O.[Cu+2] (stereo unspecified)" measured_value="92.4% (inactive)"
molecule="CN1C2C=CC(=O)C1C1C(=O)N(c3ccccc3)C(=O)C12 (stereo unspecified)" measured_value="77.5% (inactive)"
molecule=O=c1[nH]c(=S)[nH]n1C(=S)n1[nH]c(=S)[nH]c1=O measured_value="98.5% (inactive)"
molecule=COc1ccc2oc3c(ccc[n+]3C)c(=O)c2c1 measured_value="99.8% (inactive)"
molecule=CC(C)(C)OC(=O)NCCc1ccc(N)cc1 measured_value="96% (inactive)"
molecule=COc1ccc(CCO)cc1 measured_value="98.2% (inactive)"
molecule="CN(C)CC(CN(C)C)C(O)c1ccccc1 (stereo unspecified)" measured_value="108% (inactive)"
molecule="CCOC(=O)c1ccc(N2C(=O)C(Cl)(c3ccccc3)C2c2ccco2)cc1 (stereo unspecified)" measured_value="69.6% (inactive)"
molecule=O=C(O)Cc1cc(=O)[nH]n(-c2ccccc2)c1=O measured_value="117% (inactive)"

Data origin, for the record: PubChem BioAssay (NCI)
